target: VEGFR2 (Homo sapiens); assay: Kinase inhibition, Mobility Shift Assay/IMAP, VEGFR2; format: biochemical; design: purchased Carna 08-191
Sequence (P35968 790-1356 limits assumed): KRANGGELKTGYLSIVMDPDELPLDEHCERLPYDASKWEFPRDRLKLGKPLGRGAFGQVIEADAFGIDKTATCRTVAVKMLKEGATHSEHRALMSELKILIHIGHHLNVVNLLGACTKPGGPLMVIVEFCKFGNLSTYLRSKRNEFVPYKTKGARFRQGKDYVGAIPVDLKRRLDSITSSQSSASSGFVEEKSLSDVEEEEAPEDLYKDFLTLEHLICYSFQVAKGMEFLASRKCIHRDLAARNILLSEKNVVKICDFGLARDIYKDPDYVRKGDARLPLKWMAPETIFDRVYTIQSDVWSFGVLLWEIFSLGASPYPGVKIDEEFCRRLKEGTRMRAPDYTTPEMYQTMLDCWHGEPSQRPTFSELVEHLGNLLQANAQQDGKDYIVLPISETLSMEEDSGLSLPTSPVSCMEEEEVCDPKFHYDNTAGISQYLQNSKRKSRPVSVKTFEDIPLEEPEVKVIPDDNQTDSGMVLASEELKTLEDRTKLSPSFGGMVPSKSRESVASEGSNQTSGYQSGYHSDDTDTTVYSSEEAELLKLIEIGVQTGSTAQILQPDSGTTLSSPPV
RECORDED_METRIC: IC50 (nM)

{"COMPOUND": "COc1cccc(COc2nsc(NC(=O)NCCCCN3CCCC3)c2C(N)=O)c1F", "TARGET_OR_TEST_SYSTEM": "VEGFR2 (Homo sapiens)", "READING": 34.8}

P. CNC(=O)c1cc(COc2nsc(NC(=O)NCCCCN3CCCC3)c2C(N)=O)ccc1F
Q. NC(=O)c1c(OCc2ccc(F)c(C(=O)NC3CC3)c2)nsc1NC(=O)NCCCN1CCNCC1
Which gives the smaller IC50 number: P or Q ? Your answer should be the label attached to the chosen record.
Q
